- Tested on: SF-295 CNS
- assay.remarks: NCI tumour cell line growth inhibition, 48 h
Can you tell me TGI for the items I'm about to list?

Examples with their reported TGI follow.
> print(dat)
                                   compound  observed.value
1  O=C(N/N=C(/COc1ccc([N+](=O)[O-])cc1)N=Cc1ccncc1)c1ccncc1        > 100 µM
2  CCN(CC)CCNC(=O)c1cn2c(ccc3sc4ccccc4c(=O)c32)n1         23.9 µM
3  C=C1C(=O)O[C@H]2[C@@H](O)[C@H](C)CCC[C@]3(C)O[C@H]3CC[C@@]3(C)O[C@@H]3C[C@@H]12         15.6 µM
4  O=C(O)Cc1ccc2[nH]c(O)c(C3=Nc4ccccc4C3=O)c2c1        > 100 µM
5  O=C1OC(O)C(Oc2c(Cl)cccc2Cl)=C1Cl (centres undefined)         33.9 µM

Quick request: TGI for each listed item, please.
1. CCOC(=O)CC(=O)Nc1cccc2[nH]cnc12
2. CCCCCCCCCCC1OC([C@@H](O)CC[C@H](O)C2CC[C@@H](CCCCCCCC(O)CC3=CC(C)OC3=O)O2)CCC1O (some centres undefined)
3. CCc1cccc(CC)c1NC(=O)C1=C(C)NC(C)=C(C(=O)Nc2c(CC)cccc2CC)C1c1ccc([N+](=O)[O-])cc1

> 100 µM
> 25 µM
38.6 µM

For the compound CC(C)(C)C1CCC2c3c([nH]c4ccccc34)C3C(=O)N(c4ccccc4)C(=O)C3C2C1 (centres undefined) , give its reported TGI.
16.4 µM

====

Can you tell me TGI for the items I'm about to list?
- Test system: M14 melanoma
- assay.remarks: NCI tumour cell line growth inhibition, 48 h

Examples with their reported TGI follow.
compound	experimental.target	TGI
CC1=NN(c2nc(N)nc(CC#N)n2)C(C)(C)C1	M14 melanoma	> 100 µM
C/C=C/CC(C)[C@@H](O)[C@H](NC)C(=O)O (stereo not given in full)	M14 melanoma	> 100 µM
CCOC(=O)C(Cc1cccn1C(=O)OC(C)(C)C)[N+](=O)[O-] (stereo not given)	M14 melanoma	40.9 µM
COC(C)(C)C1(O)CCC(C)CC1=O (stereo not given)	M14 melanoma	> 100 µM
CCCCCCCCCCCCCCCCOC[C@@H](COC(c1ccccc1)(c1ccccc1)c1ccccc1)O[P+](=S)OC (stereo not given in full)	M14 melanoma	14.5 µM

Quick request: TGI for each listed item, please.
1. O=C(OCc1ncc(-c2ccc(C(F)(F)F)cc2)c(NC2CCCCCC2)n1)c1c(F)c(F)c(F)c(F)c1F
2. COC1=CC(=O)C2C(C1=O)C(c1ccccc1)[C@H]2C (stereo not given in full)

["39.6 µM", "> 100 µM"]

====

- Test system: 786-0 renal
- assay.remarks: NCI tumour cell line growth inhibition, 48 h
property: TGI

Quick request: TGI for each listed item, please.
1. O=c1c2cccc3cccc(c4n1CCN=4)c32
2. Clc1ccc(C(SCc2ccccc2)SCc2ccccc2)cc1
3. CCc1cc(CCC(=O)Nc2c(C)cccc2C)[nH]n1

["> 100 µM", "> 10 µM", "> 100 µM"]

====

- Test system: OVCAR-3 ovarian
- assay.remarks: NCI tumour cell line growth inhibition, 48 h
Can you tell me TGI for the items I'm about to list?

Examples with their reported TGI follow.
> print(dat)
                                   compound  experimental.target  observed.value
1  Cc1c(C(=O)/C=C/c2ccccc2O)c(=O)n(-c2ccccc2)n1C      OVCAR-3 ovarian        > 100 µM
2   COC(=O)Cc1ccc(Oc2cnc3cc(F)c(F)cc3n2)cc1      OVCAR-3 ovarian        > 100 µM
3                CC1(CCC(=O)OC2CCCCC2)OCCO1      OVCAR-3 ovarian        > 100 µM

Quick request: TGI for each listed item, please.
1. C=C[C@@]1(O)CCCC2=C(C(=O)OCC)CC[C@]21C
2. OCC(O)c1nc2ccc3[nH]ncc3c2c2c1CCCC2 (stereo unspecified)
3. COc1nc(N)nc2c1ncn2C1OC(CO)C(O)C1O (stereo unspecified)

["> 100 µM", "> 50 µM", "> 5000 µM"]

====

Can you tell me TGI for the items I'm about to list?
- Test system: NCI/ADR-RES ovarian
- assay.remarks: NCI tumour cell line growth inhibition, 48 h

Examples with their reported TGI follow.
> print(dat)
                                   compound  observed.value
1  NC1=CN2c3ccccc3N(CC(=O)O)C2C=C1 (configuration not stated)        > 100 µM
2           CCOC(=O)CC(=O)Nc1cccc2[nH]cnc12        > 100 µM
3  CCC(CNc1cc(OC)cc2cccnc12)NC1CCCCC1 (configuration not stated)        > 100 µM
4  CC(=O)NC1=C[C@@H]([C@H]2COC(C)(C)O2)OC1=O        > 100 µM
5  Cc1ccc(S(=O)(=O)NNC(=O)c2cc(C)c(C)cc2N)cc1        > 100 µM
6  CN(c1ccccc1Cl)S(=O)(=O)c1ccc([N+](=O)[O-])cc1        > 100 µM
7  Nc1ccn(C2OC(COC(=O)C34CC5CC(CC(C5)C3)C4)C(O)C2O)c(=O)n1 (configuration not stated)        > 100 µM
8  COC(=O)[C@H](Cc1c[nH]c2ccccc12)NC(=O)c1ccc(CNC(=O)/C=C/c2cccc(Oc3ccccc3)c2)cc1        > 100 µM

Quick request: TGI for each listed item, please.
1. COc1ccc(-c2c3c(n(C4OC(COC(C)=O)C(OC(C)=O)C(OC(C)=O)C4OC(C)=O)c(=S)c2C#N)CC(C)(C)CC3=O)cc1 (configuration not stated)
2. FC(F)(F)c1cccc(-c2nc3ccccc3c3c2[C@@]2(N4CCCC4)CCCC[C@@H]32)c1
3. O=[N+]([O-])c1ccc(C=NCC2CCCN3CCCCC23)cc1 (configuration not stated)
4. C=C(Nc1ccc([N+](=O)[O-])cc1[N+](=O)[O-])c1c/c(=N\NC(N)=S)c2ccccc2o1
5. SCCSCCCSCCS
6. Cn1c2ccc(Br)cc2c2c3c(c4c5ccccc5[nH]c4c21)C(=O)N(O)C3=O
7. Cc1cc(C)c(NC(=S)NC(=O)c2ccccc2)cc1C

["> 100 µM", "> 100 µM", "> 100 µM", "> 100 µM", "> 100 µM", "> 100 µM", "> 100 µM"]

Quick request: TGI for each listed item, please.
1. Cc1c2c(OCCN3CCCCC3)nn(C)c(=O)c2c(C)n1-c1ccccc1
2. CN(C)CCCn1nc(N)c2nc3cc(Cl)ccc3nc21

1. > 100 µM
2. > 100 µM

====

Can you tell me TGI for the items I'm about to list?
- Test system: CAKI-1 renal
- assay.remarks: NCI tumour cell line growth inhibition, 48 h

> print(dat)
                                   molecule  observed.value
1                CC1(CCC(=O)OC2CCCCC2)OCCO1        > 100 µM
2  CCOC(=O)CC1C(COC(=O)NC)OC(n2cnc3c(NC(=O)Nc4ccccc4)ncnc32)C1O[Si](C)(C)C(C)(C)C (stereo not drawn)         38.8 µM
3  CN1C(=O)N[C@H]2[C@@H]3NC(=O)c4ccc(Br)n4[C@@H]3C[C@]21O         13.1 µM

Quick request: TGI for each listed item, please.
1. O=C(O)CCC(=O)c1ccc(Cl)cc1
2. COc1nc(N)nc2c1ncn2C1OC(CO)C(O)C1O (stereo not drawn)
3. Cn1c(=O)c2nc(-c3ccc(Cl)cc3)oc2n(C)c1=O
4. O=C1OC(=O)c2cc(S(=O)(=O)c3ccc4c(c3)C(=O)OC4=O)ccc21
5. CC(=O)On1c(-c2ccccc2-c2nc3ccccc3n2OC(C)=O)nc2ccccc21

> 100 µM
> 5000 µM
> 100 µM
> 100 µM
> 100 µM

====

- System: A498 renal
- assay.remarks: NCI tumour cell line growth inhibition, 48 h
Can you tell me TGI for the items I'm about to list?

Examples with their reported TGI follow.
> print(dat)
                                   compound  observed.value
1  CCOC(=O)c1sc2[n+](c1C)C(=O)/C(=C/c1ccc([N+](=O)[O-])cc1)S2        > 100 µM
2  COc1cc(-c2nc(-c3nc4ccccc4[nH]3)cc3c2[nH]c2ccccc23)cc(OC)c1OC        > 100 µM
3      O=[N+]([O-])CCc1cccc([N+](=O)[O-])c1        > 100 µM

For the compound O=C1CC(c2cccc(Br)c2)n2cccc21 (centres undefined) , give its reported TGI.
> 100 µM
